Assign efflux ratio at 2 h to each entry below.
System: human MDR1 P-gp
Experiment: Assessment of efflux in MDCK cells transfected with the human MDR1 gene (MDCK assay)
Format: in vitro ADME, canine
Conditions: dog, MDCK-MDR1, pH 7.4, MDCK-MDR1; Papp (b-a) divided by Papp (a-b)
Answers are plain numbers.

Before answering, review these 7 worked examples.
[[record]]
compound = "O=C(NC1(c2ccc(C(F)(F)F)cc2F)CCOCC1O)c1cnn2cc(C3CC3)cnc12 (single isomer, unassigned) [Example 82a]"
reportedmeasurement = 1

[[record]]
compound = "Cc1nn2cc(C3CC3)cnc2c1C(=O)NC1(c2ncc(C(F)(F)F)cc2F)CCOCC1"
reportedmeasurement = 0.6

[[record]]
compound = "O=C(NC1(c2ccc(C(F)(F)F)cc2)CCOC1)c1cnn2cc(C3CC3)cnc12 (racemic)"
reportedmeasurement = 0.5

[[record]]
compound = "Cc1nn2cc(C3CC3)cnc2c1C(=O)NC1(c2ccc(C(F)(F)F)cn2)CCOCC1"
reportedmeasurement = 0.6

[[record]]
compound = "Cc1cnc2c(C(=O)NC3(c4ccc(C(F)(F)F)cc4F)CCOCC3)cnn2c1"
reportedmeasurement = 0.6

[[record]]
compound = "O=C(NC1(c2ccc(C(F)(F)F)cc2F)COCC1O)c1cnn2cc(C3CC3)cnc12 (single isomer, unassigned)"
reportedmeasurement = 1.3

[[record]]
compound = "Cc1nn2cc(C3CC3)cnc2c1C(=O)NC1(c2ccc(C(F)(F)F)nc2)CCOCC1"
reportedmeasurement = 0.8


Turning now to a further record.
I looked up "O=C(NC1(c2ccc(C(F)(F)F)cc2F)CCOCC1)c1cnn2cc(F)cnc12" and its efflux ratio at 2 h for human MDR1 P-gp was 0.7

###

System: human MDR1 P-gp
Assay: Assessment of efflux in MDCK cells transfected with the human MDR1 gene (MDCK assay)
Assay type: in vitro ADME, canine
Conditions: dog, MDCK-MDR1, pH 7.4, MDCK-MDR1 monolayers, apical-to-basal, pH 7.4, 37° C.
assayEndpoint: Papp A→B at 2 h
Write the numeric value and follow it with the unit.

[[record]]
molecule = "O=C(NC1(c2ccc(C(F)(F)F)cc2F)COCC1O)c1cnn2cc(C3CC3)cnc12 (single isomer, unassigned) [Example 69]"
assayendpoint = "Papp A→B at 2 h"
reportedmeasurement = "250 nm/s"

[[record]]
molecule = "Cc1nn2cc(C3CC3)cnc2c1C(=O)NC1(c2ccc(C(F)(F)F)nc2)CCOCC1O (racemic) [Example 51]"
assayendpoint = "Papp A→B at 2 h"
reportedmeasurement = "110 nm/s"

[[record]]
molecule = "Cc1nn2cc(C3CC3)cnc2c1C(=O)NC1(c2ccc(C(F)(F)F)cn2)CCOCC1 [Example 21]"
assayendpoint = "Papp A→B at 2 h"
reportedmeasurement = "940 nm/s"

[[record]]
molecule = "Cc1nn2cc(C3CC3)cnc2c1C(=O)NC1(c2ncc(C(F)(F)F)cc2F)CCOCC1 [Example 17]"
assayendpoint = "Papp A→B at 2 h"
reportedmeasurement = "850 nm/s"

[[record]]
molecule = "Cc1cnc2c(C(=O)NC3(c4ccc(C(F)(F)F)cc4F)CCOCC3O)cnn2c1 (single isomer, unassigned) [Example 81a]"
assayendpoint = "Papp A→B at 2 h"
reportedmeasurement = "600 nm/s"


Would you mind listing Papp A→B at 2 h for each of the following molecules?
1. Cc1cnc2c(C(=O)NC3(c4ccc(C(F)(F)F)cc4F)CCOCC3O)cnn2c1 (racemic) [Example 46]
2. Cc1nn2cc(C3CC3)cnc2c1C(=O)NC1(c2ccc(C(F)(F)F)nc2)CCOCC1 [Example 25]

1. 600 nm/s
2. 1000 nm/s

Values from patent US10479794B2
